Target: T1, cyno CD46 expressed on 293 cells (cynomolgus)
T1 construct: whole, on cells; The construct on the cells is not described; also called HEK 293 cells expressing cyno CD46
Assay: FACS, 293 cells expressing cyno CD46, pH 6.0
The reader will find reported EC50 values listed item by item below.
Respond numerically; units are µg/mL and should not be typed.

BINDER: BAP133-2-03-03-SL (antibody, V domains shown, the killing assays used the ADC form; also called BAP133-02-03-03-SL; CPE hit BAP133-2-03-03-SL) VH: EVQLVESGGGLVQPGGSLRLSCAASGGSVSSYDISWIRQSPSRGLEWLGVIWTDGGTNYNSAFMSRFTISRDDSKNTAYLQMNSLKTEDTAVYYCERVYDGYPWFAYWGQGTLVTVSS VL: AIQLTQSPSSLSASVGDRVTITCRASQGISNYLNWYLQKPGQSPQLLIYYTSSLHSGVPDRFSGSGSGTDFTLKISRVEAEDVGVYYCQQYIKLPWTFGQGTKVEIK
EC50 [µg/mL]: 0.104

We now examine a further binder.
Task: Which EC50 value belongs to BA-133-04-03 (antibody, V domains shown, also called CPE hit BA133-04-03) VH: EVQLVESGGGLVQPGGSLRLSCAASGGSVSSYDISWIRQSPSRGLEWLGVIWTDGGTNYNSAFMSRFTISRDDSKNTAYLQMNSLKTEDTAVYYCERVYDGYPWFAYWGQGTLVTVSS VL: AIQLTQSPSSLSASVGDRVTITCRASQGISNYLNWYLQKPGQSPQLLIYYTSSLFSGVPDRFSGSGSGTDFTLKISRVEAEDVGVYYCQQYIKLPWTFGQGTKVEIK ?
Result: 0.0411
